All values here come from ChEMBL document CHEMBL4354842.

# assayed-target: UniProt:P11797
# Sequence (P11797 whole entry): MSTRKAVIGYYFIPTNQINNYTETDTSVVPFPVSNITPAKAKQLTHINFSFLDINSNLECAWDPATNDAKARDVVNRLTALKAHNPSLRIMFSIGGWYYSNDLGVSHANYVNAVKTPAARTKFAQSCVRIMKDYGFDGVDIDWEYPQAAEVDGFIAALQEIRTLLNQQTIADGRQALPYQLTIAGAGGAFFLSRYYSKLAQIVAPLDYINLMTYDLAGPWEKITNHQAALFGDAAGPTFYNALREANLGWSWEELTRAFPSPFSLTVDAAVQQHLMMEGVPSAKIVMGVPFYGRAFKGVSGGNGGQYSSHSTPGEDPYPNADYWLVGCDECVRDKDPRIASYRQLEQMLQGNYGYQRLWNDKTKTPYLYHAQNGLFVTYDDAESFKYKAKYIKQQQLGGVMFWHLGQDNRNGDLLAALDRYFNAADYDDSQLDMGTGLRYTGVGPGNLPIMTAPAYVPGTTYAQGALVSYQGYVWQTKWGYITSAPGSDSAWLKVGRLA
endpoint-name: pKd
Answers are plain numbers, as −log10 of the molar value.

Task: Which pKd is reported for this compound? Cc1cccn2c(=O)c3cc(C(=O)NCc4cccnc4)c(=N)n(CC4CCCO4)c3nc12 (stereo unspecified)
Result: 6.72

---

# assayed-target: Acidic mammalian chitinase (Homo sapiens)
# Sequence (Q9BZP6 22-476 limits assumed): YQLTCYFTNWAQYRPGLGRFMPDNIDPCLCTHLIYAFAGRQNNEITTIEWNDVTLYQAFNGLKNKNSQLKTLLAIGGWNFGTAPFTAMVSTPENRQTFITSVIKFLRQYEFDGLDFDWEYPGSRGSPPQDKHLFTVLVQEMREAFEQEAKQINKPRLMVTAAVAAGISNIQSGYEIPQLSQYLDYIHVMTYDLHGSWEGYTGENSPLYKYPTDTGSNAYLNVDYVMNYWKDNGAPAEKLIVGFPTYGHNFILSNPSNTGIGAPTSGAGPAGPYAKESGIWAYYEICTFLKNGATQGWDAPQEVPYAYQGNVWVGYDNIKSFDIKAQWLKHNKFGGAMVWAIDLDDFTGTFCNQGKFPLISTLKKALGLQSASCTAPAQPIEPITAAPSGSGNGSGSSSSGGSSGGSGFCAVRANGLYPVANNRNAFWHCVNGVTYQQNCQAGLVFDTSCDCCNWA
# assay-protocol: Inhibition of human acidic mammalian chitinase catalytic domain overexpressed in Pichia pastoris at 10 uM using 4MU-(GlcNAc)2 as substrate after 30 mins by fluorescence based microplate reader analysis
Calls of active or inactive are those of the source. The rule behind the calls is not given here.
Mark one answer only. Choices: True = active, False = inactive

Task: Write down the call the test reported for this compound. Item: CC(NC(=O)c1cc2c(=O)n3ccccc3nc2n(Cc2ccccc2)c1=N)c1ccccc1 (stereo not given)
Result: True

Task: Write down the call the test reported for this compound. Item: Cc1cccn2c(=O)c3cc(C#N)c(=N)n(Cc4ccccc4)c3nc12
Result: False

---

# assayed-target: Chitotriosidase-1 (Homo sapiens, UniProt Q13231)
endpoint-name: pKi
Give bare numbers, as −log10 of the molar value.

Task: Missing value: pKi, Chitotriosidase-1 (Homo sapiens, UniProt Q13231), entry Cc1cccn2c(=O)c3cc(C(=O)NCc4cccnc4)c(=N)n(CC4CCCO4)c3nc12 (stereo unspecified) . Fill in?
Result: 5.95

---

# assayed-target: Chitotriosidase-1 (Mus musculus)
# Sequence (Q9D7Q1 whole entry): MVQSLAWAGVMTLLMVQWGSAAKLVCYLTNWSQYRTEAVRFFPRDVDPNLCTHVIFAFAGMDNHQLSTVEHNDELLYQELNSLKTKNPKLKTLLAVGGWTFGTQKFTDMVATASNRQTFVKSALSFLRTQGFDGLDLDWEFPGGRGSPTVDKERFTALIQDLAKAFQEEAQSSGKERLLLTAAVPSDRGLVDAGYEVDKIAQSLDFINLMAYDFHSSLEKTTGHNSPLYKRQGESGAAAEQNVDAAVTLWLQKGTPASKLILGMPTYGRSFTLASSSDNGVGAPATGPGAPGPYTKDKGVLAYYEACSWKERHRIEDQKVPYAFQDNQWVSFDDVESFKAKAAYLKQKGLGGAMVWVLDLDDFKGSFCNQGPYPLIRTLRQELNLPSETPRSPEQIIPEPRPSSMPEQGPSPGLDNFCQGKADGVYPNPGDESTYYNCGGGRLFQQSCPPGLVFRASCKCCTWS
endpoint-name: Ki (nM)
Give bare numbers, in nM.

Task: Missing value: Ki, Chitotriosidase-1 (Mus musculus), entry Cc1cccn2c(=O)c3cc(C(=O)NCc4cccnc4)c(=N)n(CC4CCCO4)c3nc12 (stereo unspecified) . Fill in?
Result: 1940

---

# assayed-target: Chitinase B (Serratia marcescens) (UniProt P11797)
# assay-protocol: Inhibition of Serratia marcescens chitinase b catalytic domain overexpressed in Escherichia coli BL21(DE3) cells at 1 uM using 4MU-(GlcNAc)2 as substrate after 30 mins by fluorescence based microplate reader analysis
Active and inactive are the calls of the source. No cut-off for these calls is given here.
Mark one answer only. Choices: active, inactive

These solved cases illustrate the format of a correct answer.
{"molecule": "COCCCn1c(=N)c(-c2nc3ccccc3s2)cc2c(=O)n3ccccc3nc21", "label-class": "inactive"}
{"molecule": "N=c1c(C(=O)NC2CCCCC2)cc2c(=O)n3ccccc3nc2n1Cc1cccnc1", "label-class": "inactive"}
{"molecule": "Cc1cccn2c(=O)c3cc(C(=O)NCc4cccnc4)c(=N)n(Cc4ccco4)c3nc12", "label-class": "active"}
{"molecule": "Cc1cccn2c(=O)c3cc(C(=O)NCc4cccnc4)c(=N)n(Cc4ccc(F)cc4)c3nc12", "label-class": "active"}
{"molecule": "Cc1cccn2c(=O)c3cc(C#N)c(=N)n(Cc4cccnc4)c3nc12", "label-class": "inactive"}
{"molecule": "Cc1cccn2c(=O)c3cc(C(=O)NCc4cccnc4)c(=N)n(CC4CCCO4)c3nc12 (centres undefined)", "label-class": "active"}

Task: Write down the call the test reported for this molecule. Item: COCCCn1c(=N)c(C(=O)N[C@@H](C)c2ccccc2)cc2c(=O)n3ccccc3nc21
Result: active

Task: Write down the call the test reported for this molecule. Item: CC(NC(=O)c1cc2c(=O)n3ccccc3nc2n(Cc2ccccc2)c1=N)c1ccccc1 (centres undefined)
Result: active

Task: Write down the call the test reported for this molecule. Item: Cc1ccc2nc3c(cc(C(=O)N[C@H](C)c4ccccc4)c(=N)n3C[C@H]3CCCO3)c(=O)n2c1
Result: active

---

# assayed-target: UniProt:Q9BZP6
# assay-protocol: Inhibition of human acidic mammalian chitinase catalytic domain overexpressed in Pichia pastoris at 10 uM using 4MU-(GlcNAc)2 as substrate after 30 mins by fluorescence based microplate reader analysis
Calls of active or inactive are those of the source. No cut-off for these calls is given here.
Mark one answer only. Choices: active, inactive

Task: Write down the call the test reported for this compound. Item: Cc1cccn2c(=O)c3cc(C(=O)N[C@H](C)c4ccccc4)c(=N)n(C[C@H]4CCCO4)c3nc12
Result: active

---

# assayed-target: Chitotriosidase-1 (Homo sapiens, UniProt Q13231)
# assay-protocol: Inhibition of human CHIT1 catalytic domain overexpressed in Pichia pastoris at 10 uM using 4MU-(GlcNAc)2 as substrate after 30 mins by fluorescence based microplate reader analysis
# Sequence (Q13231 22-466 limits assumed): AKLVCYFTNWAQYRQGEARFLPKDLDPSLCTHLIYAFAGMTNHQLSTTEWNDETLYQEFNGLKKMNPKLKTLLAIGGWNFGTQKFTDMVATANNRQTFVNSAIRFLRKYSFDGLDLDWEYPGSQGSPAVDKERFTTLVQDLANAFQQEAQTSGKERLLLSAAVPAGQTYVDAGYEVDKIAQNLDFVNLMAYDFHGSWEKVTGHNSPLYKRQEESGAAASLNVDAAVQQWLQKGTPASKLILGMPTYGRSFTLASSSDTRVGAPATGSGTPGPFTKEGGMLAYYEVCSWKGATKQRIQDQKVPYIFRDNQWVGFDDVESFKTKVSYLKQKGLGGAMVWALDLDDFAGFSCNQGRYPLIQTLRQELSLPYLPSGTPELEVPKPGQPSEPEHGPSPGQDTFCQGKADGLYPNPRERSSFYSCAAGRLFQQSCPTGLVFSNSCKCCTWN
Calls of active or inactive are those of the source. The calls are words filed in the database; no cut-off is given here.
Mark one answer only. Choices: True = active, False = inactive

These solved cases illustrate the format of a correct answer.
{"molecule": "CC(NC(=O)c1cc2c(=O)n3ccccc3nc2n(Cc2ccccc2)c1=N)c1ccccc1 (centres undefined)", "label-class": "True"}
{"molecule": "COCCCn1c(=N)c(C(=O)NCc2ccc(OC)cc2)cc2c(=O)n3ccccc3nc21", "label-class": "False"}
{"molecule": "Cc1cccn2c(=O)c3cc(C#N)c(=N)n(Cc4ccccc4)c3nc12", "label-class": "False"}

Field: next molecule
Task: Write down the call the test reported for this molecule. Item: COCCCn1c(=N)c(C(=O)NCc2ccc(F)cc2)cc2c(=O)n3ccccc3nc21
Result: False

---

# assayed-target: Chitinase (Ostrinia furnacalis) (UniProt Q4AE59)
# Sequence (Q4AE59 as listed by the source): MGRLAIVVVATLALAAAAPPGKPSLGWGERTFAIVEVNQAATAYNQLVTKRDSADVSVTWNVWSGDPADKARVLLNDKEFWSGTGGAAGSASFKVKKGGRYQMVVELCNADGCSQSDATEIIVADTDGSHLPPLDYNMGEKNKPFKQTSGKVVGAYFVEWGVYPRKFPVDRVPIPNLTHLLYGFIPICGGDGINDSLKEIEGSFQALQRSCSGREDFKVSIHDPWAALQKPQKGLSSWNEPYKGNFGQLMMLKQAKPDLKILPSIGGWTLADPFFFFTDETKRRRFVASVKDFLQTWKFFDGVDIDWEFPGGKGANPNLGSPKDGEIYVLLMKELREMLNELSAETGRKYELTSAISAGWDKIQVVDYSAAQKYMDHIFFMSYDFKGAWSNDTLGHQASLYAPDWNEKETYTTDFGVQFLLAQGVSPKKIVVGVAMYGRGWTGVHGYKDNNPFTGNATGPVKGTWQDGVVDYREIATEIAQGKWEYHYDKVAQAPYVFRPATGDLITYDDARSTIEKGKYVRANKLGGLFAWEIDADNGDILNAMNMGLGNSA
# assay-protocol: Inhibition of Ostrinia furnacalis chitinase h catalytic domain overexpressed in Pichia pastoris at 1 uM using 4MU-(GlcNAc)2 as substrate after 30 mins by fluorescence based microplate reader analysis
Active and inactive are the calls of the source. The rule behind the calls is not given here.
Mark one answer only. Choices: Y = active, N = inactive

{"compound": "COCCCn1c(=N)c(C(=O)NCc2ccc(OC)cc2)cc2c(=O)n3ccccc3nc21", "label-class": "N"}
{"compound": "COCCCn1c(=N)c(C(=O)NCc2ccc(C)cc2)cc2c(=O)n3ccccc3nc21", "label-class": "N"}

Field: next compound
Task: Write down the call the test reported for this compound. Item: CC(NC(=O)c1cc2c(=O)n3ccccc3nc2n(Cc2ccccc2)c1=N)c1ccccc1 (stereo not drawn)
Result: Y

---

# assayed-target: Chitinase B (Serratia marcescens)
# Sequence (P11797 whole entry): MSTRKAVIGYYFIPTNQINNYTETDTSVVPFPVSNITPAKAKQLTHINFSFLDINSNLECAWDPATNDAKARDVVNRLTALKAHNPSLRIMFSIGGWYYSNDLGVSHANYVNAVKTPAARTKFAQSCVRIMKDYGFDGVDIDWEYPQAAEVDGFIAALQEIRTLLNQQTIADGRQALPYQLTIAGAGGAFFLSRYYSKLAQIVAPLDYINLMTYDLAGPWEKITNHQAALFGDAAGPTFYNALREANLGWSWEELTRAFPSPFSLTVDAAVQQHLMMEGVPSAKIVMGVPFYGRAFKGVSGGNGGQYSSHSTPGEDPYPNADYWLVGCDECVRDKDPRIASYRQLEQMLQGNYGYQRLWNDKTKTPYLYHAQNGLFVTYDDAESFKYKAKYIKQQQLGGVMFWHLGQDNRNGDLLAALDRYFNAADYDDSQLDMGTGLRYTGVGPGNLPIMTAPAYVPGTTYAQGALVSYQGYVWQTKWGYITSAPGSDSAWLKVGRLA
endpoint-name: pKi
Answers are plain numbers, as −log10 of the molar value.

Task: Which pKi is reported for this molecule? Cc1cccn2c(=O)c3cc(C(=O)NCc4cccnc4)c(=N)n(CC4CCCO4)c3nc12 (stereo unspecified)
Result: 7.24

---

# assayed-target: Chitinase B (Serratia marcescens)
# Sequence (whole entry): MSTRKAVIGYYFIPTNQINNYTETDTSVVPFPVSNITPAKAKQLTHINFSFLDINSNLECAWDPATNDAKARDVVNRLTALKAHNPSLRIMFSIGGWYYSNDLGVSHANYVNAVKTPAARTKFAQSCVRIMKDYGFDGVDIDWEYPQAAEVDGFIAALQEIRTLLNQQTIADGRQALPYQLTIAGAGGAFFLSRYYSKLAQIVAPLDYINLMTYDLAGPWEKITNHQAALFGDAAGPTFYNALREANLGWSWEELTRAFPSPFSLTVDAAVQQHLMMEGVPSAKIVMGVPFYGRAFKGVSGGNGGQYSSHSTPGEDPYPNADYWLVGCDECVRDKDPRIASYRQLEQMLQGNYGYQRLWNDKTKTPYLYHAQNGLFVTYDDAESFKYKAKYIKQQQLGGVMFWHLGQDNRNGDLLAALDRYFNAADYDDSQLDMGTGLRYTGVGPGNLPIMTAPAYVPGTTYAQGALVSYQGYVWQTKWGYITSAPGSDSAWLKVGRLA
# assay-protocol: Inhibition of Serratia marcescens chitinase b catalytic domain overexpressed in Escherichia coli BL21(DE3) cells at 1 uM using 4MU-(GlcNAc)2 as substrate after 30 mins by fluorescence based microplate reader analysis
Activity calls are given as the source filed them. No cut-off for these calls is given here.
Mark one answer only. Choices: 1 (active), -1 (inactive)

{"molecular-string": "Cc1ccc2nc3c(cc(C(=O)NCc4cccnc4)c(=N)n3C[C@H]3CCCO3)c(=O)n2c1", "assayed-target": "Chitinase B (Serratia marcescens)", "label-class": 1}
{"molecular-string": "CCOC(=O)c1cc2c(=O)n3ccccc3nc2n(Cc2ccco2)c1=N", "assayed-target": "Chitinase B (Serratia marcescens)", "label-class": -1}
{"molecular-string": "C=CCn1c(=N)c(C(=O)N2CCN(C)CC2)cc2c(=O)n3cccc(C)c3nc21", "assayed-target": "Chitinase B (Serratia marcescens)", "label-class": -1}
{"molecular-string": "C[C@@H](NC(=O)c1cc2c(=O)n3ccccc3nc2n(C[C@H]2CCCO2)c1=N)c1ccccc1", "assayed-target": "Chitinase B (Serratia marcescens)", "label-class": 1}
{"molecular-string": "CNC(=O)c1cc2c(=O)n3cc(C)ccc3nc2n(Cc2cccnc2)c1=N", "assayed-target": "Chitinase B (Serratia marcescens)", "label-class": -1}

Task: Write down the call the test reported for this compound. Item: COC(=O)c1cc2c(=O)n3ccccc3nc2n(Cc2cccnc2)c1=N
Result: -1

Task: Write down the call the test reported for this compound. Item: COCCn1c(=N)c(C(=O)NCCN2CCCCC2)cc2c(=O)n3ccccc3nc21
Result: -1
